- STUDY TARGET: T1, 重组人CD40-his蛋白 (human, UniProt P25942 21-193)
- T1 construct: extracellular domain; Recombinant protein; also called 人CD40(ECD)-his; huCD40-his; not shown: his tag
- T1 sequence (P25942 21-193): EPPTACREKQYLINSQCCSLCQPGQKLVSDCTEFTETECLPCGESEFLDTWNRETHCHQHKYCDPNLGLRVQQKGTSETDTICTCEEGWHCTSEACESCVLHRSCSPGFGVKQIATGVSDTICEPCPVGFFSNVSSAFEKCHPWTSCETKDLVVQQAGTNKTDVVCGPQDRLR
- TEST: BLI (Fortebio Blitz), antibody on AMC sensor, huCD40-his 6.25-200 nM
In this section we review reported pKd values for a set of binders.
// pKd: -log10(molar conc.)

Ask: Provide only the value of recorded pKd for 人源化抗体42 (antibody, human IgG1, kappa, V domains shown, Humanized IgG1/kappa; also called 42D11-8-humanized; 42Humanized) VH: QVQLQESGPGLVKPSQTLSLTCTVSGFSLTSYGVHWVRQHPGKGLEWLGMIWSGGSTDYNSAFISRLTISKDNSKSQVSLKLSSVTAADTAVYYCARVGGDYWGQGTTVTVSS VL: DIVITQSPLSLPVTLGQPASITCRSSQSLVHSRGNTYLHWFQQRPGQSPRLLIYKVSNRFSGVPDRFSGSGSGTDFTLKISRVEAEDVGVYFCFQTTHVPWTFGQGTRLEIKR
Reply: 7.48

Ask: Assign pKd to the following record: 人源化抗体31 (antibody, human IgG1, kappa, V domains shown, Humanized IgG1/kappa; also called 31A2-2-humanized; 31Humanized) VH: QVQLQESGPGLVKPSETLSLTCTVSGFSLTSYSVHWVRQPPGKGLEWLGMIWSGGSTDYNAAFISRLTISKDNSKSQVSLKLSSVTAADTAVYYCARVGGDYWGQGTTVTVSS VL: DVVMTQSPLSLPVTLGQPASITCRSSQSLLHSRGNTYLHWFQQRPGQSPRLLIYKVSNRFSGVPDRFSGSGSGTDFTLKISRVEAEDVGVYFCFQTTHVPWTFGQGTRLEIKR
Reply: 7.78

Ask: Consider the binder APX005M (antibody, V domains shown) VH: QVQLVESGGGVVQPGRSLRLSCAASGFSFSSTYVCWVRQAPGKGLEWIACIYTGDGTNYSASWAKGRFTISKDSSKNTVYLQMNSLRAEDTAVYFCARPDITYGFAINFWGPGTLVTVSS VL: DIQMTQSPSSLSASVGDRVTIKCQASQSISSRLAWYQQKPGKPPKLLIYRASTLASGVPSRFSGSGSGTDFTLTISSLQPEDVATYYCQCTGYGISWPIGGGTKVEIK and give its recorded pKd.
Reply: 7.42

Ask: Using known records, supply pKd for 嵌合抗体C31 (antibody, human IgG1, kappa, V domains shown, Mouse-human chimeric IgG1/kappa expressed in Expi-293 cells; also called 31Chimeric; 抗体31A2-2的鼠人嵌合抗体) VH: QVQLKESGPGLVQPSQSLSITCTVSGFSLTNYSVHWVRQSPGKGLEWLGMIWSGGSTDYNAAFISRLSISKDNFKSQVFFKMNSLQADDTAIYYCARVGGDYWGQGTTVTVSS VL: DVLMTQTPLSLPVSLGDPASISCRSSQSLLHSRGNTYLHWFLQKPGQSPKLLIYKVSNRFSGVPDRFSGSGSGTDFTLRISRVEAEDLGVYFCFQTTHVPWTFGGGTKLEIKR
Reply: 8.34

// data source = patent CN115232210A
